Provide the reported inhibition at 0.01 µM of each item.
Tested on: HIV-IIIb
Protocol Summary: Test A: Antiviral Assay in MT4 Cells
Format: cell-based, HIV-1
Assay Conditions: Human immunodeficiency virus 1, MT4, 120 h; inhibition of virus-induced cell killing, from dose response curve at 0.01 μM (10 nM); MT-4 cells, HIV-IIIb, 5 days; values normalized to 100%; read-out: % inhibition at 0.01 μM
Give bare numbers, in %.

Could you report inhibition at 0.01 µM for every entry in the following list?
1. CCS(=O)(=O)Nc1nn(CC(F)(F)F)c2c(-c3ccc(C#CC(C)(C)S(=O)(=O)C4CC4)nc3[C@H](Cc3cc(F)cc(F)c3)NC(=O)Cn3nc(C(F)(F)F)c4c3C(F)(F)[C@@H]3C[C@H]43)ccc(Cl)c12 [Example 67]
2. CC1(S(=O)(=O)Nc2nn(CC(F)F)c3c(-c4ccc(C#CC(C)(C)S(=O)(=O)C5CC5)nc4[C@H](Cc4cc(F)cc(F)c4)NC(=O)Cn4nc(C(F)(F)F)c5c4C(F)(F)[C@@H]4C[C@H]54)ccc(Cl)c23)CC1 [Example 22]
3. Cn1nc(NS(=O)(=O)C2CC2)c2cccc(-c3ccc(C#CC(C)(C)S(=O)(=O)C4CC4)nc3[C@H](Cc3cc(F)cc(F)c3)NC(=O)Cn3nc(C(F)F)c4c3C(F)(F)[C@@H]3C[C@H]43)c21 [Example 40]

Ans.
1: 13; 2: 94; 3: 84

Qu. # return recorded inhibition at 0.01 µM for input CC(C)(C#Cc1ccc(-c2ccc(Cl)c3c(NS(=O)(=O)C4CC4)nn(CC(F)F)c23)c([C@H](Cc2cc(F)cc(F)c2)NC(=O)Cn2nc(C(F)F)c3c2C(F)(F)[C@@H]2C[C@H]32)n1)S(=O)(=O)C1CC1 [Example 16]
Ans. 98
